molecular target: sCoV-RBD (Fc-tagged RBD of SARS-CoV S protein) (SARS-CoV; human, UniProt P59594 306-527); test: phage ELISA, scFv on phage
ATTRIBUTE_MEASURED: binding result

- CoV2-17 (antibody, V domains shown) VH: QVELVESGGGLVKPGGSLRLSCAASGFTFSSYSMNWVRQAPGKGLEWVSSISSSSSYIYYADSVKGRFTISRDNAKNSLYLQMNSLRAEDTAVYYCARGNVDIVATGEVDAFDIWGQGTMVSVSS VL: QAVVTQPPSASGTLGQRVTISCSGSSSTIGSNYVYWYQQLPGTAPKLLIYRNNQRPSGVPDRFSGSKSGTSASLAISGLRSEDEADYYCAAWDDSLSGYVFGTGTQLTVL: no binding
- CoV2-05 (antibody, V domains shown) VH: EVQLVESGGGVARPGGSLRLSCAASGFTFDDYGMSWVRQVPGKGLEWVAGINWNGERIGYADSVKGRFTISRDNAKNSLYLQMNSLRAEDTALYYCARPSGDYVAWYFNLWGRGTLVTVSS VL: QAALTQPRSVSGSPGQSVTISCTGTGSDVGPYKYVSWYQQHPGKAPKLMIYDVNERPSGVPDRFSGSKSGNTASLTISGLQAEDEADYYCGSYAGNNKWVFGGGTKLTVL: no binding
- CoV2-19 (antibody, V domains shown) VH: QVQLVQSGAEMKKPGASVKVSCKTSGYTFTNSYIHWVRQAPGQGLEWMGWINPISGGTNYAQKFQGRVTMTRDTSINTAYMELSRLRSDDTAVYYCARDRGDYDYGWGTSPFYFDYWGQGTLVTVSS VL: AIQLTQSPSSLSASVGDRVTITCRTSHTVNSYLNWYQQEPGKAPKLLIYAASNLQSGVPSRFSGSGSGTDFSLTIHNLQPEDFATYYCQQSYRTPLTFGQGTKVDIK: no binding
